Measured values drawn from patent US20210094954A1 for this set.

// values below are MIC; system is Diphtheria bacilli

# MOLECULE SMILES, MIC
records = [
    ("Cc1nn2c([O-])cc(-c3ccc(C#N)cc3)nc2c1-c1ccc(F)cc1F.[K+]", "< 150 µg/mL"),
    ("Cc1nn2c([O-])cc(-c3ccc(N(C)C)cc3)nc2c1-c1ccc(F)cc1F.[K+]", "> 150 µg/mL"),
    ("Cc1nn2c([O-])cc(-c3ccc([O-])cc3)nc2c1-c1ccc(F)cc1F.[Na+].[Na+]", "> 150 µg/mL"),
    ("Cc1nn2c([O-])cc(-c3ccc(C(N)=O)cc3)nc2c1-c1ccc(F)cc1F.[Na+]", "> 150 µg/mL"),
]

====

tested on: Staphylococcus aureus 703(MRSA); assay: microbe, parasite or virus in culture; type: cell-based; settings: Staphylococcus aureus, MRSA, 24 h, read-out: MIC values of in vitro antibacterial test results
The entries below come with measured MIC values attached.

# MOLECULE, EXPERIMENTAL TARGET, MIC
measured = [
    ("COc1ccc(-c2cc([O-])n3nc(C)c(-c4ccc(F)cc4F)c3n2)cc1.[Na+] [Compound 4]", "Staphylococcus aureus 703(MRSA)", "< 150 µg/mL"),
    ("Cc1nn2c([O-])cc(-c3ccc(C(=O)NCCN(C)C)cc3)nc2c1-c1ccc(F)cc1F.[Na+] [Compound 31]", "Staphylococcus aureus 703(MRSA)", "< 100 µg/mL"),
    ("Cc1nn2c([O-])cc(-c3ccc(S(=O)[O-])cc3)nc2c1-c1ccc(F)cc1F.[Na+].[Na+] [Compound 8]", "Staphylococcus aureus 703(MRSA)", "< 150 µg/mL"),
    ("Cc1nn2c([O-])cc(-c3ccc(C(=O)[O-])nc3)nc2c1-c1ccc(F)cc1F.[Na+].[Na+] [Compound 21]", "Staphylococcus aureus 703(MRSA)", "< 150 µg/mL"),
]

====

system: Staphylococcus aureus 43300(MRSA); test: microbe, parasite or virus in culture; assay type: cell-based; details: Staphylococcus aureus, MRSA, 24 h, read-out: MIC values of in vitro antibacterial test results

# MOLECULE SMILES, MIC
rows = [
    ("Cc1nn2c([O-])cc(-c3ccc([N+](=O)[O-])nc3)nc2c1-c1ccc(F)cc1F.[Na+]", "< 150 µg/mL"),
    ("Cc1nn2c([O-])cc(-c3ccc([O-])cc3)nc2c1-c1ccc(F)cc1F.[Na+].[Na+]", "< 100 µg/mL"),
    ("Cc1nn2c([O-])cc(-c3ccc(C(=O)NCCN(C)C)cc3)nc2c1-c1ccc(F)cc1F.[Na+]", "< 150 µg/mL"),
    ("Cc1nn2c([O-])cc(-c3ccc(C#N)cc3)nc2c1-c1ccc(F)cc1F.[Na+]", "< 50 µg/mL"),
    ("Cc1nn2c([O-])cc(-c3ccc(C#N)cc3)nc2c1-c1ccc(F)cc1F.[K+]", "< 150 µg/mL"),
    ("Cc1nn2c([O-])cc(-c3ccc(C#N)nc3)nc2c1-c1ccc(F)cc1F.[Na+]", "< 150 µg/mL"),
    ("Cc1nn2c([O-])cc(-c3ccc(Oc4ccccc4)nc3)nc2c1-c1ccc(F)cc1F.[Na+]", "< 100 µg/mL"),
    ("Cc1nn2c([O-])cc(-c3ccc(F)cc3F)nc2c1-c1ccc(F)cc1F.[Na+]", "< 150 µg/mL"),
]

====

test system: Staphylococcus aureus 43300(MRSA); test: microbe, parasite or virus in culture; type: cell-based; details: Staphylococcus aureus, MRSA, 24 h, read-out: MIC values of in vitro antibacterial test results
MEASURE: MIC

# MOLECULE SMILES, MEASURE, TEST VALUE
rows = [
    ("Cc1nn2c([O-])cc(-c3ccc([N+](=O)[O-])cc3)nc2c1-c1ccc(F)cc1F.[Na+]", "MIC", "< 50 µg/mL"),
    ("COc1ccc(-c2cc([O-])n3nc(C)c(-c4ccc(F)cc4F)c3n2)cn1.[Na+]", "MIC", "< 100 µg/mL"),
    ("Cc1nn2c([O-])cc(-c3ccc(C(=O)[O-])nc3)nc2c1-c1ccc(F)cc1F.[Na+].[Na+]", "MIC", "< 100 µg/mL"),
    ("Cc1nn2c([O-])cc(-c3ccc(C(F)(F)F)cc3)nc2c1-c1ccc(F)cc1F.[K+]", "MIC", "< 100 µg/mL"),
]

====

The entries below come with measured MIC values attached.
test system: Staphylococcus aureus 703(MRSA); assay: microbe, parasite or virus in culture; assay type: cell-based; conditions: Staphylococcus aureus, MRSA, 24 h, read-out: MIC values of in vitro antibacterial test results
MEASURE: MIC

# MOLECULE SMILES, TEST VALUE
rows = [
    ("Cc1nn2c([O-])cc(-c3ccc(Oc4ccccc4)cc3)nc2c1-c1ccc(F)cc1F.[Na+]", "< 100 µg/mL"),
    ("Cc1nn2c([O-])cc(-c3ccc(S(N)(=O)=O)cc3)nc2c1-c1ccc(F)cc1F.[K+]", "< 150 µg/mL"),
    ("Cc1nn2c([O-])cc(-c3ccc(C(F)(F)F)nc3)nc2c1-c1ccc(F)cc1F.[K+]", "< 100 µg/mL"),
    ("Cc1nn2c([O-])cc(-c3ccc(N(C)C)cc3)nc2c1-c1ccc(F)cc1F.[Na+]", "< 150 µg/mL"),
    ("Cc1nn2c([O-])cc(-c3ccc(C#N)cc3)nc2c1-c1ccc(F)cc1F.[K+]", "< 100 µg/mL"),
    ("Cc1nn2c([O-])cc(-c3ccc(S(N)(=O)=O)nc3)nc2c1-c1ccc(F)cc1F.[Na+]", "< 150 µg/mL"),
    ("Cc1nn2c([O-])cc(-c3ccc([O-])cc3)nc2c1-c1ccc(F)cc1F.[Na+].[Na+]", "< 100 µg/mL"),
    ("Cc1nn2c([O-])cc(-c3ccc(C#N)nc3)nc2c1-c1ccc(F)cc1F.[Na+]", "< 100 µg/mL"),
    ("Cc1nn2c([O-])cc(-c3ccc(C(N)=O)cc3)nc2c1-c1ccc(F)cc1F.[Na+]", "< 150 µg/mL"),
    ("Cc1nn2c([O-])cc(-c3ccc(C(F)(F)F)nc3)nc2c1-c1ccc(F)cc1F.[Na+]", "< 100 µg/mL"),
    ("Cc1nn2c([O-])cc(-c3ccc(C#N)cc3)nc2c1-c1ccc(F)cc1F.[Na+]", "< 50 µg/mL"),
    ("CC(=O)Oc1ccc(-c2cc([O-])n3nc(C)c(-c4ccc(F)cc4F)c3n2)cn1.[Na+]", "< 150 µg/mL"),
]

====

The entries below come with measured MIC values attached.
tested on: Staphylococcus aureus 43300(MRSA); assay: microbe, parasite or virus in culture; type: cell-based; conditions: Staphylococcus aureus, MRSA, 24 h, read-out: MIC values of in vitro antibacterial test results

# MOLECULE SMILES, MIC
records = [
    ("Cc1nn2c([O-])cc(-c3ccc([O-])nc3)nc2c1-c1ccc(F)cc1F.[Na+].[Na+]", "< 100 µg/mL"),
    ("Cc1nn2c([O-])cc(-c3ccc(C#N)nc3)nc2c1-c1ccc(F)cc1F.[K+]", "< 150 µg/mL"),
    ("Cc1nn2c([O-])cc(-c3ccc(C(F)(F)F)cc3)nc2c1-c1ccc(F)cc1F.[Na+]", "< 100 µg/mL"),
    ("Cc1nn2c([O-])cc(-c3ccc(S(N)(=O)=O)cc3)nc2c1-c1ccc(F)cc1F.[K+]", "< 150 µg/mL"),
]

====

The entries below come with measured MIC values attached.
tested on: Staphylococcus aureus 703(MRSA); test: microbe, parasite or virus in culture; assay type: cell-based; conditions: Staphylococcus aureus, MRSA, 24 h, read-out: MIC values of in vitro antibacterial test results
MEASURE: MIC

# COMPOUND, MEASURE, TEST VALUE
measured = [
    ("Cc1nn2c([O-])cc(-c3ccc(N(C)C)cc3)nc2c1-c1ccc(F)cc1F.[K+] [Compound 24]", "MIC", "< 100 µg/mL"),
    ("Cc1nn2c([O-])cc(-c3ccc(F)cc3F)nc2c1-c1ccc(F)cc1F.[Na+] [Compound 12]", "MIC", "< 150 µg/mL"),
    ("Cc1nn2c([O-])cc(-c3ccc([O-])nc3)nc2c1-c1ccc(F)cc1F.[Na+].[Na+] [Compound 19]", "MIC", "< 150 µg/mL"),
    ("Cc1nn2c([O-])cc(-c3ccc(C#N)nc3)nc2c1-c1ccc(F)cc1F.[K+] [Compound 27]", "MIC", "< 100 µg/mL"),
    ("Cc1nn2c([O-])cc(-c3ccc(Oc4ccccc4)nc3)nc2c1-c1ccc(F)cc1F.[Na+] [Compound 30]", "MIC", "< 150 µg/mL"),
    ("Cc1nn2c([O-])cc(-c3ccc(S(N)(=O)=O)cc3)nc2c1-c1ccc(F)cc1F.[Na+] [Compound 9]", "MIC", "< 100 µg/mL"),
    ("Cc1nn2c([O-])cc(-c3ccc(C(N)=O)nc3)nc2c1-c1ccc(F)cc1F.[Na+] [Compound 32]", "MIC", "< 150 µg/mL"),
    ("Cc1nn2c([O-])cc(-c3ccc(C(=O)[O-])cc3)nc2c1-c1ccc(F)cc1F.[Na+].[Na+] [Compound 7]", "MIC", "< 150 µg/mL"),
    ("CC(=O)Oc1ccc(-c2cc([O-])n3nc(C)c(-c4ccc(F)cc4F)c3n2)cc1.[Na+] [Compound 13]", "MIC", "< 150 µg/mL"),
    ("Cc1nn2c([O-])cc(-c3ccc([N+](=O)[O-])cc3)nc2c1-c1ccc(F)cc1F.[Na+] [Compound 3]", "MIC", "< 50 µg/mL"),
]
